The reported numbers originate from PubChem BioAssay (NCI).

Entries and their growth values follow.
test system: RPMI-8226 leukemia; test: NCI-60 one-dose screen, 48 h (100 = growth as untreated, 0 = no growth, -100 = all killed); details: 10 µM unless noted
Compounds without any hit were thinned out: in the full panel of roughly 83,000, 20% have a hit.
Give the quantity in %, number only.

A selection of reference data follows.
[[record]]
molecule = "O=C1C[C@H](N2C(=O)c3ccccc3S2(=O)=O)C2CO[C@@H]1O2"
quantitative_readout = 91.1

[[record]]
molecule = "CCOC(=O)C(Cc1cc(I)c(O)c(I)c1)NC(=O)c1ccccc1 (stereo unspecified)"
quantitative_readout = 89.5

[[record]]
molecule = "CCOC(=O)c1ccc2c(c1)nc(/C=C/c1ccc(Cl)cc1)n2-c1cc(C(C)(C)C)[nH]n1"
quantitative_readout = 52.3

[[record]]
molecule = "O=C1/C(=C/c2ccc(F)cc2)CN(C(=O)CCN2CCC(=NO)CC2)C/C1=C\\c1ccc(F)cc1"
quantitative_readout = -37.6

[[record]]
molecule = "COc1ccc(-c2nn(-c3ccccc3)cc2/C=C2\\SC(=O)NC2=O)cc1"
quantitative_readout = 78.7

[[record]]
molecule = "C=C1CC[C@@H]2[C@](C)(COC(C)=O)[C@H](OC(C)=O)CC[C@@]2(C)[C@@H]1CC(Nc1ccc(S(=O)(=O)Nc2ccc(Cl)nn2)cc1)C1=CCOC1=O (stereo partly specified)"
quantitative_readout = -19.2

[[record]]
molecule = "COc1ccc(C(=O)/C=C/c2c(Cl)c3c(c(OC)c2Cl)OCC(=O)N3)cc1"
quantitative_readout = 3.79

[[record]]
molecule = "CNc1nc(C)c(-c2nc(Nc3cccc(S(N)(=O)=O)c3)ncc2F)s1"
quantitative_readout = 2.6

[[record]]
molecule = "C=C(C[n+]1ccccc1)[C@@H]1CC[C@]2(C(=O)OC)CC[C@]3(C)[C@H](CC[C@@H]4[C@@]5(C)CC[C@H](O)C(C)(C)[C@@H]5CC[C@]43C)[C@@H]12"
quantitative_readout = 91.1

[[record]]
molecule = "O=C1OC2C(I)C3CC2C1C3c1ccccc1 (stereo unspecified)"
quantitative_readout = 106


**Query** Sample CC(=O)OCC1OC(OC2=C(CC=C(Cl)Cl)C(=O)c3ccccc3C2=O)C(OC(C)=O)C(OC(C)=O)C1OC(C)=O (stereo unspecified) — what was its growth?
**Result** 9.85

**Query** Param item = "Cn1cc(-c2ccc(-c3cn(C)c4ncccc34)[nH]2)c2cccnc21" ; retrieve measured growth.
**Result** 31.9

**Query** // growth lookup, key: "OCCNCCNc1c2ccccc2nc2ccccc12"
**Result** 90.8

**Query** So what does the record say about growth for "COc1c(Cl)cc(Cl)cc1Cl" ?
**Result** 118

**Query** Need growth, item "COc1ccc(-c2cnoc2-c2cc(OC)c3c(c2)OCCO3)cc1"
**Result** -8.88

**Query** Which value of growth has been reported for "Fc1ccc(Cc2ccc(F)cc2)cc1" in the records?
**Result** 108

**Query** Record request: growth value, item "CCCCCCCCCCNC(=O)CCl"
**Result** 82.3

**Query** Any idea what its growth is? The molecule is ClC1=C2NC=NC2n2c(nnc2-c2ccc(Cl)cc2)N1 (stereo unspecified)
**Result** 89.2

**Query** Quick check: growth of Nc1nc2c(c3ncccc13)C(c1ccc(Cl)c(Cl)c1)Cc1ncccc1-2 (stereo unspecified) ?
**Result** 15.8

**Query** Suppose we examine the molecule "CC/C(=C(\c1ccccc1)c1ccc(OCCNC)cc1)c1ccccc1" ; what growth value has been reported?
**Result** -40.9

**Query** Requested field: growth. Item: CCOC(=O)C12CCCC1=CC(=O)CC2 (stereo unspecified)
**Result** 98.5
